Items are presented alongside their recorded CTG-3D luminescence at 96 h.
# Tested on: HCI-002 (organoid from a triple-negative breast cancer xenograft)
# Assay notes: CTG-3D luminescence at 96 h relative to day-0 seeding control (ratio to day 0); higher = more growth / less cytotoxicity; PDxO 3D drug screen, 96 h, CTG-3D normalised to day-0 seeding control.
# Cond: 0.00025 µM; days in culture: 91
Reply with just the number.

Example molecules with recorded CTG-3D luminescence at 96 h:
{"Structure notation": "CC(=O)O[C@H]1C(=O)[C@@]2(C)[C@H]([C@H](OC(=O)c3ccccc3)[C@]3(O)C[C@H](OC(=O)[C@H](O)[C@@H](NC(=O)c4ccccc4)c4ccccc4)C(C)=C1C3(C)C)[C@]1(OC(C)=O)CO[C@@H]1C[C@@H]2O", "Assay system": "HCI-002", "Test value": 3.68}
{"Structure notation": "Cc1cc(Nc2ncc(Cl)c(Nc3ccccc3S(=O)(=O)C(C)C)n2)c(OC(C)C)cc1C1CCNCC1", "Assay system": "HCI-002", "Test value": 3.86}
{"Structure notation": "CCc1c2c(nc3ccc(O)cc13)-c1cc3c(c(=O)n1C2)COC(=O)[C@]3(O)CC", "Assay system": "HCI-002", "Test value": 2.86}
{"Structure notation": "CNC(=O)c1cccc(-c2ccc3c(N4CCOC[C@@H]4C)nc(N4CCOC[C@@H]4C)nc3n2)c1", "Assay system": "HCI-002", "Test value": 3.61}

Qu. Dear colleague, I am looking for the recorded CTG-3D luminescence at 96 h of the following molecule: CC(C)(C(=O)NCC(F)(F)C(F)(F)F)C(=O)N[C@@H]1C(=O)Nc2ccccc2-c2ccccc21
Ans. 3.94

Qu. Try this molecule next: O=C(c1ccc(F)c(F)c1Nc1ccc(I)cc1F)N1CC(O)([C@@H]2CCCCN2)C1
Ans. 3.46

Qu. Try this molecule next: COc1cccc2c1C(=O)c1c(O)c3c(c(O)c1C2=O)C[C@@](O)(C(=O)CO)C[C@@H]3O[C@H]1C[C@H](N)[C@H](O)[C@H](C)O1
Ans. 3.38

Qu. Try this molecule next: CC1(C)CCC(c2ccc(Cl)cc2)=C(CN2CCN(c3ccc(C(=O)NS(=O)(=O)c4ccc(N[C@H](CCN5CCOCC5)CSc5ccccc5)c(S(=O)(=O)C(F)(F)F)c4)cc3)CC2)C1
Ans. 2.91
